// reported IC50 for each item listed
# target: human recombinant 5-HT2C receptor (Homo sapiens)
# Sequence (P28335 33-458): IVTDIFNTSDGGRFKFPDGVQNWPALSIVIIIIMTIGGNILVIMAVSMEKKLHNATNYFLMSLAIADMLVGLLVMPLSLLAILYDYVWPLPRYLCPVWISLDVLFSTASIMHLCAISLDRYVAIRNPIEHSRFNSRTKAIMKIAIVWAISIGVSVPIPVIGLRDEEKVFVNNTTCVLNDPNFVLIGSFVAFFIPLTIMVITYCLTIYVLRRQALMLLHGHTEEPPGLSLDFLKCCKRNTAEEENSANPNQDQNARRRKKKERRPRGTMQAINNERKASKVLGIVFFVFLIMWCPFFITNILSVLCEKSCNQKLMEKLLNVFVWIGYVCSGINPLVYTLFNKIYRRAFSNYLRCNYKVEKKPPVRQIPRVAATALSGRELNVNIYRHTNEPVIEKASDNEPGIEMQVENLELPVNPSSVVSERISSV
# protocol: Binding affinity for serotonin 5-HT2C receptor ([3H]Mesulergine)
# stated.conditions: CHO-K1 membranes, 1.3 nM [3H]Mesulergine
Counter-ions that a name gives are not always drawn.
Dear colleague, please return just the value in nM, with no unit written.

// known answers, use as guide
{"molecule": "Cc1c(C(=O)NCCCN2CCN(c3cccc(Cl)c3Cl)CC2)cc(-c2ccccc2)n1CC1CCCCC1", "reported.result": 1030}
{"molecule": "CCCn1c(-c2ccccc2)cc(C(=O)NCCCN2CCN(c3cccc(Cl)c3)CC2)c1C", "reported.result": 273}
{"molecule": "Cc1c(C(=O)NCCCN2CCN(c3ccc(F)cc3)CC2)cc(-c2ccccc2)n1C", "reported.result": 493}

Q) For human recombinant 5-HT2C receptor (Homo sapiens), give IC50 of the listed molecule: Cc1[nH]c(-c2ccccc2)c(C)c1C(=O)NCCCCN1CCN(c2cccc(Cl)c2Cl)CC1 [Example 78, hydrochloride]
A) 10

Q) For human recombinant 5-HT2C receptor (Homo sapiens), give the measured IC50 of the entry CCCn1c(-c2cccc(OC)c2)cc(C(=O)NCCCN2CCN(c3cccc(Cl)c3Cl)CC2)c1C [Example 82, hydrochloride]
A) 43

Q) Look up human recombinant 5-HT2C receptor (Homo sapiens) data: IC50 of `Cc1cccc(N2CCN(CCCNC(=O)c3cc(-c4ccccc4)n(CC(C)C)c3C)CC2)c1C` , then report it.
A) 1300

Q) Fill in IC50 for `Cc1c(C(=O)NCCCN2CCN(c3cccc(Cl)c3Cl)CC2)cc(-c2ccccc2)n1CC(C)C` tested with human recombinant 5-HT2C receptor (Homo sapiens).
A) 342

Q) Please tell me the measured IC50 for Cc1[nH]c(-c2ccccc2)cc1C(=O)NCCN1CCN(c2cccc(Cl)c2Cl)CC1.Cl [Example 48, hydrochloride] ; system: human recombinant 5-HT2C receptor (Homo sapiens).
A) 156

Q) Provide the reported IC50 (system: human recombinant 5-HT2C receptor (Homo sapiens)) for Cc1cccc(N2CCN(CCCNC(=O)c3cc(-c4ccc(Cl)cc4)[nH]c3C)CC2)c1C [Example 44, hydrochloride]
A) 189

Q) Give IC50; test system human recombinant 5-HT2C receptor (Homo sapiens); molecule `CCCn1c(-c2ccccc2)cc(C(=O)NCCCN2CCN(c3ccccc3Br)CC2)c1C`
A) 633

Q) Supply IC50 measured with human recombinant 5-HT2C receptor (Homo sapiens) for Cc1cccc(N2CCN(CCCNC(=O)c3cc(-c4ccc(Cl)cc4)n(C)c3C)CC2)c1C [Example 61, hydrochloride] .
A) 129

Q) Using human recombinant 5-HT2C receptor (Homo sapiens) as the test system, report measured IC50 of CCn1c(-c2ccccc2)cc(C(=O)NCCCCN2CCN(c3cccc(Cl)c3Cl)CC2)c1C [Example 43, hydrochloride] .
A) 28

Q) Enter IC50 (test system human recombinant 5-HT2C receptor (Homo sapiens)) for `CCn1c(C(C)(C)C)cc(C(=O)NCCCN2CCN(c3cccc(C)c3C)CC2)c1C`
A) 1140
